# System: RIN5F (Rat Insulinoma) cells
# Test Summary: In vitro glucose-dependent insulin secretion (RIN5F cell assay screening protocol)
# Type: cell-based
# Condition Info: 10 nM test compd., 16.7 mM glucose load

| Compound | Unit Name | Insulin secretion |
| --- | --- | --- |
| CCc1cc(OC)ccc1-c1ccc(CC(NC(=O)[C@H](CC(=O)O)NC(=O)[C@H](CO)NC(=O)[C@@H](NC(=O)[C@H](Cc2ccccc2)NC(=O)[C@@H](NC(=O)CNC(=O)[C@H](CCC(N)=O)NC(=O)[C@H](CO)NC(=O)[C@@H](N)Cc2c[nH]cn2)[C@@H](C)O)[C@@H](C)O)C(=O)NC(CCCc2ccc(F)cc2C(F)(F)F)C(N)=O)cc1 (single isomer, unassigned) [compound 48] | pg/µg/h | 29.9 |
| CCc1cc(OC)ccc1-c1ccc(CC(NC(=O)[C@H](CC(=O)O)NC(=O)[C@H](CO)NC(=O)[C@@H](NC(=O)C(C)(Cc2ccccc2F)NC(=O)[C@@H](NC(=O)CNC(=O)[C@H](CC(C(F)(F)F)C(F)(F)F)NC(=O)C(C)(C)NC(=O)[C@H](Cc2c[nH]cn2)NC(C)=O)[C@@H](C)O)[C@@H](C)O)C(=O)NC(CCCc2ccccc2)C(N)=O)cc1 (single isomer, unassigned) [compound 210] | pg/µg/h | 27.6 |
| CCc1cc(OC)ccc1-c1ccc(CC(NC(=O)[C@H](CC(=O)O)NC(=O)[C@H](CO)NC(=O)[C@@H](NC(=O)C(C)(Cc2ccccc2F)NC(=O)[C@@H](NC(=O)CNC(=O)[C@H](CCC(N)=O)NC(=O)C(C)(C)NC(=O)[C@@H](N)Cc2c[nH]cn2)[C@@H](C)O)[C@@H](C)O)C(=O)NC(CCCc2cccc(Cl)c2)C(N)=O)cc1 (single isomer, unassigned) [compound 39] | pg/µg/h | 19.0 |

###

# Test Summary: Stability in human plasma
# Type: in vitro ADME
# Condition Info: pH 7.8; 2 μM peptidomimetic, pooled human plasma, 37° C.; read-out: half-life (t1/2) when incubated with human plasma
Non-standard residues stand in square brackets, D forms with d. Residues, ends and D or L forms follow the SMILES beside them. ξ: configuration not given here. ξBip(2'-Et-4'-OMe) = CCc1cc(OC)ccc1-c1ccc(CC(N)C(=O)O)cc1; ξNva(5-(3,5-Me2-Ph)) = Cc1cc(C)cc(CCCC(N)C(=O)O)c1

| Molecule | Unit Name | Comparison Operator | half-life at 2 μM |
| --- | --- | --- | --- |
| CCc1cc(OC)ccc1-c1ccc(CC(NC(=O)[C@H](CC(=O)O)NC(=O)[C@H](CO)NC(=O)[C@@H](NC(=O)[C@H](Cc2ccccc2)NC(=O)[C@@H](NC(=O)CNC(=O)[C@H](CCC(N)=O)NC(=O)C2(C)CCCN2C(=O)[C@@H](N)Cc2c[nH]cn2)[C@@H](C)O)[C@@H](C)O)C(=O)NC(CCCc2ccc(Cl)cc2C)C(N)=O)cc1 (single isomer, unassigned) [compound 12] | h | = | 8 |
| CCc1cc(OC)ccc1-c1ccc(CC(NC(=O)[C@H](CC(=O)O)NC(=O)[C@H](CO)NC(=O)[C@@H](NC(=O)[C@H](Cc2ccccc2)NC(=O)[C@@H](NC(=O)CNC(=O)[C@H](CCC(N)=O)NC(=O)[C@H](C)NC(=O)[C@@H](N)Cc2c[nH]cn2)[C@@H](C)O)[C@@H](C)O)C(=O)NC(CCCc2cc(C)cc(C)c2)C(N)=O)cc1 (some centres unmarked) [compound 14] (H-HAQGTFTSD[ξBip(2'-Et-4'-OMe)][ξNva(5-(3,5-Me2-Ph))]-NH2) | h | = | 8 |
| CCc1cc(OC)ccc1-c1ccc(CC(NC(=O)[C@H](CC(=O)O)NC(=O)[C@H](CO)NC(=O)[C@@H](NC(=O)C(C)(Cc2ccccc2F)NC(=O)[C@@H](NC(=O)CNC(=O)C(CCC#N)NC(=O)C(C)(C)NC(=O)[C@@H](N)Cc2c[nH]cn2)[C@H](C)O)[C@@H](C)O)C(=O)NC(CCCc2ccccc2F)C(N)=O)cc1 (single isomer, unassigned) [compound 112] | h | > | 24 |
| CCc1cc(OC)ccc1-c1ccc(CC(NC(=O)[C@H](CC(=O)O)NC(=O)[C@H](CO)NC(=O)[C@@H](NC(=O)C(C)(Cc2ccccc2F)NC(=O)[C@@H](NC(=O)CNC(=O)[C@H](CC(C(F)(F)F)C(F)(F)F)NC(=O)C(C)(C)NC(=O)[C@@H](N)Cc2c[nH]cn2)[C@@H](C)O)[C@H](C)O)C(=O)NC(CCCc2ccccc2F)C(N)=O)cc1 (single isomer, unassigned) [compound 224] | h | > | 24 |
| CCc1cc(OC)ccc1-c1ccc(CC(CNC(CCCc2ccccc2)C(N)=O)NC(=O)[C@H](CC(=O)O)NC(=O)[C@H](CO)NC(=O)[C@@H](NC(=O)C(C)(Cc2ccccc2F)NC(=O)[C@@H](NC(=O)CNC(=O)[C@H](CCC(N)=O)NC(=O)C(C)(C)NC(=O)[C@H](Cc2c[nH]cn2)NC(C)=O)[C@H](C)O)[C@H](C)O)cc1 (single isomer, unassigned) [compound 185] | h | > | 24 |
